target: Phospho-EGFR (Tyr1068) in H1975 cells (Homo sapiens, UniProt P00533, L858R/T790M); assay: HTRF pEGFR/total EGFR in H1975 cells; conditions: ratio pEGFR/total EGFR, compound 3 hours
Sequence (P00533 25-1210 T790M/L858R): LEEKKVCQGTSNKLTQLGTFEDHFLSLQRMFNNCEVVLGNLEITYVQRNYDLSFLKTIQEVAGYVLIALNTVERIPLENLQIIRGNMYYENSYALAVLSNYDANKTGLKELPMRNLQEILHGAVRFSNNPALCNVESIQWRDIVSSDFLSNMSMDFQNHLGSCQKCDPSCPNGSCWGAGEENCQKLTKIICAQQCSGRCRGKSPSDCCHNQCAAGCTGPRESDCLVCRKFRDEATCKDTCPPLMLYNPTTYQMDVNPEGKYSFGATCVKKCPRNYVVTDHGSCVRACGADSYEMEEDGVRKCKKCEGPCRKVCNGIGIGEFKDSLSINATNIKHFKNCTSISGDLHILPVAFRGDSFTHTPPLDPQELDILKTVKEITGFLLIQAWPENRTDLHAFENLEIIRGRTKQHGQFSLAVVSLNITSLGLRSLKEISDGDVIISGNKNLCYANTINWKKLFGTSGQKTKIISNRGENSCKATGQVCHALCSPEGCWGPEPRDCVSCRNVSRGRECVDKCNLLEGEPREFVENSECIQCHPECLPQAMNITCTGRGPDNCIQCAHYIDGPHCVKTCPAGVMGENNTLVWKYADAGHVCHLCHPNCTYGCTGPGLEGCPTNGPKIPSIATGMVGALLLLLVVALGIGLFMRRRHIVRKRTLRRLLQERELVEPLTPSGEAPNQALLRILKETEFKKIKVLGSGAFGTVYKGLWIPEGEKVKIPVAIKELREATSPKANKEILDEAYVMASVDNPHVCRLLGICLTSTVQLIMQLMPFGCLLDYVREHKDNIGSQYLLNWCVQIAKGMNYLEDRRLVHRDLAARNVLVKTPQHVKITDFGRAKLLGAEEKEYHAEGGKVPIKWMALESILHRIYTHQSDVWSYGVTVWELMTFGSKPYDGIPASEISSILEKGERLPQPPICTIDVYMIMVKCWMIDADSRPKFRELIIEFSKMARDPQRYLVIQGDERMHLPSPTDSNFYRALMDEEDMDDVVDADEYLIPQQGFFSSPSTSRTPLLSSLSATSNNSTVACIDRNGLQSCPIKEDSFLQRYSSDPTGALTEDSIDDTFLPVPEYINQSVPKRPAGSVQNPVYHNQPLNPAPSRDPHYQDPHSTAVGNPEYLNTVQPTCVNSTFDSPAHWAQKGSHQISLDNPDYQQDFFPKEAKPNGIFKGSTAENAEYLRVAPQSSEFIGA
pIC50: −log10 of the molar value.
compounds and their reported pIC50

Would you please look over these solved cases?
Compound	pIC50
C#Cc1cc(=O)n(-c2cccc(N)c2)c2nc(Nc3ccccc3OC)ncc12 [Example 55]	5.52 to 6.00
C#Cc1cc(=O)n(C)c2nc(Nc3ccc(N4CCN(C)CC4)c(OCCC)c3)ncc12 [Example 207]	> 6.30
C#Cc1c(-c2ccccc2Cl)c(=O)n(C)c2nc(Nc3ccc(N4CCN(C)CC4)cc3OC)ncc12 [Example 127]	6.00 to 6.30
C#Cc1cc(=O)n(-c2ccccc2)c2nc(Nc3ccc(N4CCN(C)CC4)c(CC)c3)ncc12 [Example 24]	> 6.30
C#Cc1cc(=O)n2c3nc(ncc13)Nc1ccc(N3CCN(C)CC3)c(c1)CNC(=O)CCC2 [Example 237]	> 6.30
C#Cc1cc(=O)n(CC2CCNC2=O)c2nc(Nc3ccc(N4CCN(C)CC4)cc3)ncc12 (centres unmarked) [Example 119]	6.00 to 6.30

IN: Hello, please tell me recorded pIC50 for this one: C#Cc1cc(=O)n2c3nc(ncc13)Nc1ccc(N3CCN(C)CC3)c(c1)CCOCC2 [Example 240]
OUT: > 6.30

IN: Hello, please tell me recorded pIC50 for this one: C#Cc1cc(=O)n(-c2ccccc2)c2nc(Nc3ccc(N4CCCNCC4)cc3)ncc12 [Example 20]
OUT: > 6.30

====

molecules and their reported pIC50
target: Phospho-EGFR (Tyr1068) in A431 cells (Homo sapiens); construct: endogenous in cells; test: HTRF pEGFR/total EGFR in A431 cells with EGF stimulation; settings: ratio pEGFR/total EGFR, compound 2.5 hours then 100 ng/ml EGF 30 mins
pIC50: −log10 of the molar value.

Would you please look over these solved cases?
Query smiles	Assayed system	Value reported
C#Cc1cc(=O)n([C@H]2CC[C@@H](NC(=O)CN(C)C)CC2)c2nc(Nc3ccccc3OC)ncc12	Phospho-EGFR (Tyr1068) in A431 cells (Homo sapiens)	< 5.52
C#Cc1c(C)c(=O)n(Cc2ncco2)c2nc(Nc3ccc(N4CCN(C)CC4)cc3)ncc12	Phospho-EGFR (Tyr1068) in A431 cells (Homo sapiens)	5.52 to 6.00

IN: Hello, please tell me recorded pIC50 for this one: C#Cc1cc(=O)n(-c2ccccc2)c2nc(Nc3ccc(N(C)CCN(C)C)c(C)c3)ncc12
OUT: < 5.52

====

target: Phospho-EGFR (Tyr1068) in A431 cells (Homo sapiens, UniProt P00533); construct: endogenous in cells; test: HTRF pEGFR/total EGFR in A431 cells with EGF stimulation; conditions: ratio pEGFR/total EGFR, compound 2.5 hours then 100 ng/ml EGF 30 mins
Sequence (P00533 25-1210): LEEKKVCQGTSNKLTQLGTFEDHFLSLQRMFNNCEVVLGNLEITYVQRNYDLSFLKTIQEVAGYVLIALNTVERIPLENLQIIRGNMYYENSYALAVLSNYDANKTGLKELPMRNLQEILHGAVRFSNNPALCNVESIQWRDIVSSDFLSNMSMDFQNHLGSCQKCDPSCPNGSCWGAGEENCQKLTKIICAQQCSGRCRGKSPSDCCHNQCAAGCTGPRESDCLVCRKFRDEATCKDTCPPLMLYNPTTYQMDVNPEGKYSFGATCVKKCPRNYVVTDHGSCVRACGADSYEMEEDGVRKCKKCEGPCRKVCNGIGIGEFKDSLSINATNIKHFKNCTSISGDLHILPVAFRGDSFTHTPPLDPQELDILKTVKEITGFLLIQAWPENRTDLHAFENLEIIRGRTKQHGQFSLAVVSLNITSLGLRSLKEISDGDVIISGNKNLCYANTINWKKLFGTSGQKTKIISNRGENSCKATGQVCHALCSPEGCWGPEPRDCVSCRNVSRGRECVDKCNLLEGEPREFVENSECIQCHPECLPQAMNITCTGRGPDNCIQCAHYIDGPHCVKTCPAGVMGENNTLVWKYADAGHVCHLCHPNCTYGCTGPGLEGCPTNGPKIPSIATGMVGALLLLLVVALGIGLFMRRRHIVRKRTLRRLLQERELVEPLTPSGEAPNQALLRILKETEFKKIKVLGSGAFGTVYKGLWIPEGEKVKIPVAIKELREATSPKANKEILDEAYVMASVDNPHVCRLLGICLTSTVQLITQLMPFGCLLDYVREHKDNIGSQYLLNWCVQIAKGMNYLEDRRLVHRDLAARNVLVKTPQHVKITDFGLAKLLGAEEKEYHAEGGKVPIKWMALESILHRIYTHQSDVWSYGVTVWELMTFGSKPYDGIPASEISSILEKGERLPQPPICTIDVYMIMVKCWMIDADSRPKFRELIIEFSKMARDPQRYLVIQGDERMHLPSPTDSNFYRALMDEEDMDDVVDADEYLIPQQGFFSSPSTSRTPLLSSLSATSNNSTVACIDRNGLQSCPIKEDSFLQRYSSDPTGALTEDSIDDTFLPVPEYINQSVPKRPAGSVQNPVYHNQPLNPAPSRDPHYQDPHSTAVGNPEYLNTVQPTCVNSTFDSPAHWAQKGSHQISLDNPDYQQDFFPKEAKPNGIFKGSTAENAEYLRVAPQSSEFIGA
pIC50: −log10 of the molar value.
Readout: pIC50

IN: Hello, please tell me recorded pIC50 for this one: C#Cc1cc(=O)n2c3nc(ncc13)Nc1ccc(N3CCN(C)CC3)c(c1)CNCCC2
OUT: < 5.52

IN: Hello, please tell me recorded pIC50 for this one: C#Cc1cc(=O)n(-c2ccc(NC(C)=O)cc2)c2nc(Nc3ccccc3OC)ncc12
OUT: < 5.52

IN: Hello, please tell me recorded pIC50 for this one: C#Cc1cc(=O)n([C@H]2CC[C@@H](NC(=O)CC(=O)N(C)C)CC2)c2nc(Nc3ccc(N4CCN(C)CC4)cc3)ncc12
OUT: < 5.52

IN: Hello, please tell me recorded pIC50 for this one: C#Cc1cc(=O)n(CC2CCCC2)c2nc(Nc3ccc(N4CCN(C)CC4)cc3)ncc12
OUT: 5.52 to 6.00

IN: Hello, please tell me recorded pIC50 for this one: C#Cc1cc(=O)n(-c2ccc(N)cc2)c2nc(Nc3ccccc3OC)ncc12
OUT: < 5.52

IN: Hello, please tell me recorded pIC50 for this one: C#Cc1cc(=O)[nH]c2nc(Nc3ccc(N4CCN(C)CC4)c(CNC(=O)C=C)c3)ncc12
OUT: < 5.52

IN: Hello, please tell me recorded pIC50 for this one: C=Cc1c(-c2ccccc2Cl)c(=O)n(C)c2nc(Nc3ccc(N4CCN(C)CC4)cc3OC)ncc12
OUT: < 5.52

IN: Hello, please tell me recorded pIC50 for this one: C=Cc1cc(=O)n(-c2cccc(OC)c2)c2nc(Nc3ccccc3OC)ncc12
OUT: < 5.52

IN: Hello, please tell me recorded pIC50 for this one: C#Cc1cc(=O)n([C@H]2CC[C@@H](NC(=O)CN(C)C)CC2)c2nc(Nc3ccc(N4CCN(C)CC4)cc3)ncc12
OUT: 5.52 to 6.00

IN: Hello, please tell me recorded pIC50 for this one: C#Cc1cc(=O)n2c3nc(ncc13)Nc1ccc(N3CCN(CCOC)CC3)c(c1)OCCCC2
OUT: 6.00 to 6.30

IN: Hello, please tell me recorded pIC50 for this one: C#Cc1cc(=O)n(Cc2ccn(C)n2)c2nc(Nc3ccc(N4CCN(C)CC4)cc3)ncc12
OUT: 5.52 to 6.00

IN: Hello, please tell me recorded pIC50 for this one: C#Cc1cc(=O)n(C2CNC(=O)C2)c2nc(Nc3ccc(N4CCN(C)CC4)cc3)ncc12 (stereo not shown)
OUT: < 5.52

IN: Hello, please tell me recorded pIC50 for this one: C#Cc1cc(=O)n(C)c2nc(Nc3ccc(N4CCN(C)CC4)c(OCCC4CCCCC4)c3)ncc12
OUT: 5.52 to 6.00

IN: Hello, please tell me recorded pIC50 for this one: C#Cc1cc(=O)n2c3nc(ncc13)Nc1cccc(c1)OC[C@H]1CC[C@H](C1)C2
OUT: < 5.52

IN: Hello, please tell me recorded pIC50 for this one: C=Cc1cc(=O)n(-c2ccc(OC)cc2)c2nc(Nc3ccccc3OC)ncc12
OUT: < 5.52

IN: Hello, please tell me recorded pIC50 for this one: C#Cc1cc(=O)n2c3nc(ncc13)Nc1cccc(c1)OC/C=C\C2
OUT: < 5.52

Entry source: patent US20260137703A1
